- Tested on: PC-3 [JPC-3]
- PROTOCOL_DETAILS: relative viability (nuclei count vs DMSO), 5 days (fraction); higher = more cells survive
- DETAILS: first compound 0.03162 µM
Examples of compounds with documented relative viability follow.
Enter the number alone.

{"COMPOUND": "CCN(CC)CCCCNc1ncc2cc(-c3cc(OC)cc(OC)c3)c(NC(=O)NC(C)(C)C)nc2n1 + C[C@]1(O)C[C@@H](c2nc(-c3ccc4ccc(-c5ccccc5)nc4c3)c3c(N)nccn32)C1 [Linsitinib] (partner 1 µM)", "OBSERVABLE": "relative viability", "READOUT_VALUE": 0.982}

# ---- query compound ----
// query Recorded relative viability for O=c1cc(N2CCOCC2)oc2c(-c3cccc4c3sc3ccccc34)cccc12 + CCNC(=O)c1noc(-c2cc(C(C)C)c(O)cc2O)c1-c1ccc(CN2CCOCC2)cc1 [Luminespib] (partner 0.01 µM) with PC-3 [JPC-3], please?
// result 0.694

* * *

- Tested on: UMC-11
- PROTOCOL_DETAILS: relative viability (nuclei count vs DMSO), 5 days (fraction); higher = more cells survive
- DETAILS: first compound 0.03162 µM
Collected relative viability values appear next to each entry.
Answer using only a numeral; do not append any unit.

// known answers, use as guide
{"COMPOUND": "CCN(CC)CCCCNc1ncc2cc(-c3cc(OC)cc(OC)c3)c(NC(=O)NC(C)(C)C)nc2n1 + COc1cc2c(Oc3ccc(NC(=O)C4(C(=O)Nc5ccc(F)cc5)CC4)cc3F)ccnc2cc1OCCCN1CCOCC1 [Foretinib] (partner 0.25 µM)", "READOUT_VALUE": 1.02}
{"COMPOUND": "CCN(CC)CCCCNc1ncc2cc(-c3cc(OC)cc(OC)c3)c(NC(=O)NC(C)(C)C)nc2n1 + Cc1nc(Nc2ncc(C(=O)Nc3c(C)cccc3Cl)s2)cc(N2CCN(CCO)CC2)n1 [Dasatinib] (partner 0.075 µM)", "READOUT_VALUE": 0.485}
{"COMPOUND": "CCN(CC)CCCCNc1ncc2cc(-c3cc(OC)cc(OC)c3)c(NC(=O)NC(C)(C)C)nc2n1 + C[C@@H](Oc1cc(-c2cnn(C3CCNCC3)c2)cnc1N)c1c(Cl)ccc(F)c1Cl [Crizotinib] (partner 1 µM)", "READOUT_VALUE": 0.459}

Then this compound:
// query Report relative viability for O=c1cc(N2CCOCC2)oc2c(-c3cccc4c3sc3ccccc34)cccc12 + CC(=O)c1c(C)c2cnc(Nc3ccc(N4CCNCC4)cn3)nc2n(C2CCCC2)c1=O [Palbociclib] (partner 0.5 µM) please.
// result 0.294

* * *

- System: NCI-H520
- PROTOCOL_DETAILS: relative viability (nuclei count vs DMSO), 5 days (fraction); higher = more cells survive
- DETAILS: first compound 8 µM
OBSERVABLE: relative viability
// return just the number, without any unit appended

// worked examples, relative viability included
{"COMPOUND": "O=c1cc(-c2cccc3c2Sc2ccccc2S3)oc(N2CCOCC2)c1 + CC(=O)Nc1cccc(-n2c(=O)n(C3CC3)c(=O)c3c(Nc4ccc(I)cc4F)n(C)c(=O)c(C)c32)c1 [Trametinib] (partner 0.02 µM)", "OBSERVABLE": "relative viability", "READOUT_VALUE": 0.637}
{"COMPOUND": "O=c1cc(-c2cccc3c2Sc2ccccc2S3)oc(N2CCOCC2)c1 + COc1cc2c(Oc3ccc(NC(=O)C4(C(=O)Nc5ccc(F)cc5)CC4)cc3F)ccnc2cc1OCCCN1CCOCC1 [Foretinib] (partner 0.25 µM)", "OBSERVABLE": "relative viability", "READOUT_VALUE": 0.985}
{"COMPOUND": "O=c1cc(-c2cccc3c2Sc2ccccc2S3)oc(N2CCOCC2)c1 + COc1cccc2cc(-c3nc([C@H]4CC[C@H](C(=O)O)CC4)n4ncnc(N)c34)[nH]c12 [OSI-027] (partner 0.5 µM)", "OBSERVABLE": "relative viability", "READOUT_VALUE": 0.296}

Here's the next entry for you.
// query Find the recorded relative viability belonging to O=c1cc(-c2cccc3c2Sc2ccccc2S3)oc(N2CCOCC2)c1 + CS(=O)(=O)CCNCc1ccc(-c2ccc3ncnc(Nc4ccc(OCc5cccc(F)c5)c(Cl)c4)c3c2)o1 [Lapatinib] (partner 2 µM) and report it.
// result 0.961
